target: 5-hydroxytryptamine receptor 6 (Homo sapiens); experiment: Agonist activity at human 5HT6 receptor expressed in BHK cells assessed as stimulation of cAMP production after 45 minutes; assay type: functional, cell-based
Below, each entry is listed with its recorded pEC50.
Expect pEC50 as a plain number equal to -log10 of the molar concentration.

Cc1[nH]c2ccc(F)cc2c1C1=CCNCC1 | 8.28

Now examine the next entry.
Reported pEC50 for "Cc1[nH]c2ccc(Br)cc2c1C1=CCNCC1" : what is it?
8.57

* * *

molecular target: 5-hydroxytryptamine receptor 6 (Homo sapiens, UniProt P50406); experiment: Displacement of [3H]LSD from human 5HT6 receptor expressed in HEK cell membranes after 1 hr by liquid scintillation counting analysis; design: species or system HEK293
Sequence (P50406 whole entry): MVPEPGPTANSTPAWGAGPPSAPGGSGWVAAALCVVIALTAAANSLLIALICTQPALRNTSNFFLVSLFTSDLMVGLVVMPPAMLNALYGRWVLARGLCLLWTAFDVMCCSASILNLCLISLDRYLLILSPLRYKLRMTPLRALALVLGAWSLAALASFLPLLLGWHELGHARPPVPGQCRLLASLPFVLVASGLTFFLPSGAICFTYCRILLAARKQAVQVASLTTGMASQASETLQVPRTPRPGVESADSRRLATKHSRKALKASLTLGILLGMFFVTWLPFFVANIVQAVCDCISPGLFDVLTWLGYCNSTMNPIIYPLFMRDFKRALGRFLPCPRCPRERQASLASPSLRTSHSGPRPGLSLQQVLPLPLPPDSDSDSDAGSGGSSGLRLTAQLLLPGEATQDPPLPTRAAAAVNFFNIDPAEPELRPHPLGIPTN
Could you mark each record Satisfied if its IC50 falls strictly under 0.08 µM, and Not satisfied if it equals or exceeds it?

The examples below pair each entry with its known result.
Cc1[nH]c2ccc(Oc3ccccc3[N+](=O)[O-])cc2c1C1=CCNCC1 | Satisfied
Cc1[nH]c2ccc([N+](=O)[O-])cc2c1C1=CCNCC1 | Satisfied
Cc1[nH]c2ccc(OS(=O)(=O)C(F)(F)F)cc2c1C1=CCNCC1 | Satisfied

Regarding "Cc1[nH]c2ccccc2c1C1=CCNCC1" , kindly confirm whether its IC50 is beneath 0.08 µM.
Not satisfied

Okay, and "N#Cc1ccc2[nH]cc(C3=CCNCC3)c2c1" ?
Satisfied

Okay, and "Cc1[nH]c2ccc(OC(C)C)cc2c1C1=CCNCC1" ?
Not satisfied

Okay, and "Cc1c(C2=CCNCC2)c2cc(Cl)ccc2n1C" ?
Satisfied

Okay, and "Cc1[nH]c2ccc(-c3ccccc3)cc2c1C1=CCNCC1" ?
Not satisfied
